System: NOMO1
ASSAY_EXPLANATION: AUC of viability dose-response curve (% viability x log10 dose units); higher = less sensitive
CONDITIONS: RPMI 5 mM glucose + 10% dialyzed FBS; 48 h
MEASURED_PARAMETER: AUC of viability dose-response curve

Sample answers from the record:
>  <GIVEN_SMILES>
COc1cccc(N(C)C(=S)Oc2ccc3c(c2)CCCC3)n1

>  <AUC of viability dose-response curve>
444

$$$$
>  <GIVEN_SMILES>
CN1CCN(CC1)C2=CC3=C([NH]C(=N3)C/4=C(\N)C5=C(F)C=CC=C5NC4=O)C=C2

>  <AUC of viability dose-response curve>
433

$$$$
>  <GIVEN_SMILES>
CC(=O)OCC(=O)[C@@]1(O)CC[C@H]2[C@@H]3CCC/4=C/C(=O)/C=C\[C@]4(C)[C@H]3[C@@H](O)C[C@]12C

>  <AUC of viability dose-response curve>
472

$$$$

Field: next compound
*Q* Which AUC of viability dose-response curve is reported for this compound? "C[C@H](c1ccc(F)cc1CCCC(=O)O)N(c1cc(F)ccc1F)[S+](=O)([O-])c1ccc(Cl)cc1"
*A* 450
